- Tested on: Rattus norvegicus
- ASSAY_NOTES: Mean excretion of sodium in conscious rats at a dose of 100 mg/kg given orally
- Format: ADME, organism-based
- Parameters: dose 100 mg/kg, route oral
- EXPERIMENTAL_SETUP: in vivo, po
READOUT_KIND: Mean excretion of Na+ (m equiv)
Respond numerically; units are m equiv and should not be typed.

Answered examples (5):
[[record]]
compound = "COc1ccc(C(CN(C)C)c2nnc3n2-c2ccc(Cl)cc2C(c2ccccc2)=NC3)cc1 (configuration not stated)"
readout_kind = "Mean excretion of Na+"
observed = 1.91

[[record]]
compound = "I.NCC(c1ccccc1)c1nnc2n1-c1ccc(Cl)cc1C(c1ccccc1)=NC2 (configuration not stated)"
readout_kind = "Mean excretion of Na+"
observed = 1.63

[[record]]
compound = "CC1N=C(c2ccccc2)c2cc(Cl)ccc2-n2c1nnc2C(CN(C)C)c1ccccc1 (configuration not stated)"
readout_kind = "Mean excretion of Na+"
observed = 2.04

[[record]]
compound = "CN(C)CCc1nnc2n1-c1ccc(Br)cc1C(c1ccccc1)=NC2"
readout_kind = "Mean excretion of Na+"
observed = 1.57

[[record]]
compound = "CN(C)CC(c1ccccc1)c1nnc2n1-c1ccc(Br)cc1C(c1ccccc1)=NC2 (configuration not stated)"
readout_kind = "Mean excretion of Na+"
observed = 1.16


IN: Find the measured Mean excretion of Na+ of NS(=O)(=O)c1cc(C(=O)O)c(NCc2ccco2)cc1Cl [FUROSEMIDE] and report it.
OUT: 3.52

IN: Find the measured Mean excretion of Na+ of CN(C)CC(c1ccccc1)c1nnc2n1-c1ccc(Cl)cc1C(c1ccccc1)=NC2 (configuration not stated) and report it.
OUT: 1.51
